tested on: rodent lifetime carcinogenesis bioassay, tumor incidence TD50; experiment: carcinogenic potency in animals, long-term in vivo studies, CPDB compilation (AID 1745844); details: rat; strain Sprague-Dawley; females; in feed; site: urinary bladder; lesion: urothelial carcinoma; dosed 112 weeks; study length 112 weeks
experimental-readout: TD50

> print(dat)
                      smi         result
1  S=C(SN1CCOCC1)N1CCOCC1  862 mg/kg/day

---

tested on: rodent lifetime carcinogenesis bioassay, tumor incidence TD50; assay: carcinogenic potency in animals, long-term in vivo studies, CPDB compilation (AID 1745844); details: rat; strain Charles River CD (Sprague-Dawley); males; in feed; site: kidney; lesion: tubule adenoma; dosed 104 weeks; study length 104 weeks
experimental-readout: TD50

> print(dat)
                                   molecule          result
1  O=C1C2CC=CCC2C(=O)N1SC(Cl)(Cl)Cl (stereo unspecified)  3810 mg/kg/day
